Hey, just so you know, these numbers are from ChEMBL document CHEMBL4482315.

Biological target: Sulfotransferase 1E1 (Homo sapiens)
Sequence (P49888 whole entry): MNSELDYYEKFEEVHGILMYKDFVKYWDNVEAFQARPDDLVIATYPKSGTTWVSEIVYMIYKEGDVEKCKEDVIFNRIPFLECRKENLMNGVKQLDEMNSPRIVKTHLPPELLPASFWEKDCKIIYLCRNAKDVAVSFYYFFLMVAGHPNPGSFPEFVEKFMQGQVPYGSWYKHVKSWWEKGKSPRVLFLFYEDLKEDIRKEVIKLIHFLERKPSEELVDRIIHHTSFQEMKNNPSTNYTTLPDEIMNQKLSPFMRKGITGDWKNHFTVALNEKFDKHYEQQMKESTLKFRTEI
Test: Substrate activity at SULT1E1 (unknown origin) expressed in baculovirus infected Sf9 cells assessed as substrate Vmax/Km ratio level incubated for 15 mins using [35S-]PAPS as sulfate donor by TLC analysis
Conditions: sf9, 0.25 h
# if measured Vmax/Km < 0.04: Condition met  # else: Condition not met

{"columns": ["COMPOUND", "TESTED ON", "GROUP"],
 "data": [
  ["Oc1ccc2occc2c1", "Sulfotransferase 1E1 (Homo sapiens)", "Condition met"],
  ["Oc1ccc2nc(-c3ccccc3)sc2c1", "Sulfotransferase 1E1 (Homo sapiens)", "Condition not met"],
  ["Oc1ccc2ncoc2c1", "Sulfotransferase 1E1 (Homo sapiens)", "Condition met"],
  ["CNc1ccc(-c2nc3ccc(O)cc3s2)cc1 [PITTSBURGH COMPOUND B UNLABELLED]", "Sulfotransferase 1E1 (Homo sapiens)", "Condition not met"],
  ["CS(=O)(=O)c1ccc(-c2nc3ccc(O)cc3s2)cc1", "Sulfotransferase 1E1 (Homo sapiens)", "Condition not met"]
]}

State whether 0.04 exceeds Vmax/Km recorded for `Oc1ccc2sccc2c1` . Condition not met

Entry `Cc1nc2cc(O)ccc2s1` please Condition not met
